- System: Wolbachia pipientis
- experiment_notes: Anti-Wolbachia Cell-Based Screen
- Type: functional
- Parameters: scale not given: in the data most compounds retested in dose-response had high values
- condition_parameters: 5 µM
The whole screen tested about 48,000 compounds, of which about 13,000 (27%) showed an effect of 50% or more. Some of the results follow.
property_name: Percent Effect
State the result as a value with its unit after it.

Reference set, count: 3
Cc1cnn(CC2CCCN2C(=O)c2cn(-c3ccccc3)nc2C)c1 (configuration not stated) ... -0.04653%
CCOCCn1c(=O)[nH]c2cc(C(=O)N(C)Cc3cc(C)[nH]n3)ccc21 ... 4.063%
Cc1cnn(CC2CCCN2C(=O)c2ccccc2-n2cnnn2)c1 (configuration not stated) ... 114.3%

Using known records, supply Percent Effect for Cc1cnn(CC2CCCN2C(=O)c2sccc2-n2cnnn2)c1 (configuration not stated)
107.4%

Taken from ChEMBL document CHEMBL3988442.
